tested on: A-431; assay: Antiproliferative activity against human A431 cells after 48 hrs by MTT assay; format: functional, cell-based; details: A-431, 48 h
parameter: IC50 (µM)
Give bare numbers, in µM.

structure=C#Cc1cccc(NC(=O)c2cc(NC(=O)CCCCCCC(=O)NO)ccc2O)c1 units=µM reported_measurement=6.11
structure=C#Cc1cccc(NC(=O)c2cccc(NC(=O)CCCCCC(=O)NO)c2)c1 units=µM reported_measurement=7.08
structure=C#Cc1cccc(NC(=O)c2cc(NC(=O)CCCCCC(=O)NO)ccc2O)c1 units=µM reported_measurement=5.75
structure=O=C(CCCCCC(=O)Nc1ccc(O)c(C(=O)Nc2cccc(F)c2)c1)NO units=µM reported_measurement=4.28
structure=O=C(CCCCCC(=O)Nc1ccc(O)c(C(=O)Nc2ccc(Cl)c(Cl)c2)c1)NO units=µM reported_measurement=3.8

Look at each compound and report its IC50.
1. O=C(CCCCCC(=O)Nc1ccc(O)c(C(=O)Nc2ccc(F)c(Cl)c2)c1)NO
2. O=C(CCCCCC(=O)Nc1ccc(O)c(C(=O)Nc2cccc(C(F)(F)F)c2)c1)NO
3. C#Cc1cccc(NC(=O)c2cc(NC(=O)CCCCCC(=O)NO)ccc2OC)c1
4. O=C(CCCCCC(=O)Nc1ccc(O)c(C(=O)Nc2ccc(Cl)c(C(F)(F)F)c2)c1)NO
5. C#Cc1cccc(NC(=O)c2cc(NC(=O)CCCCCC(=O)NO)c(OC)cc2O)c1

[3.48, 2.75, 4.2, 4.14, 4.68]

###

test system: HL-60; test: Antiproliferative activity against human HL60 cells after 48 hrs by MTT assay; type: functional, cell-based; conditions: HL-60, 48 h
pIC50: −log10 of the molar value.
parameter: pIC50

structure=C#Cc1cccc(NC(=O)c2cc(NC(=O)CCCCCC(=O)NO)ccc2O)c1 reported_measurement="< 4.00"

Look at each compound and report its pIC50.
1. O=C(CCCCCC(=O)Nc1ccc(O)c(C(=O)Nc2ccc(F)c(Cl)c2)c1)NO
2. O=C(CCCCCC(=O)Nc1ccc(O)c(C(=O)Nc2cccc(C(F)(F)F)c2)c1)NO

["< 4.00", "< 4.00"]

Cited source for all entries: ChEMBL document CHEMBL2046429
